This collection of values is drawn from the Deep4Chem optical property database.

Assay: photoluminescence quantum yield (fraction); solvent given as SMILES
Details: in CC#N
Reported photoluminescence quantum yield values follow for various molecules
Output: the number by itself.

[[record]]
line_notation = "CC1=[N+]2C(=C(c3ccc(-c4c5ccccc5c(-c5ccccc5)c5ccccc45)cc3)c3ccc(C)n3[B-]2(F)F)C=C1"
number = 0.002

[[record]]
line_notation = "CCOC(=O)c1c2c3c(ccc([N+](=O)[O-])c3c3cc4c(cc13)[Si](C)(C)O[Si]4(C)C)N(C)C2=O"
number = 0.3

[[record]]
line_notation = "COC(=O)c1ccc2c3ccc(C(=O)OC)c4c(C(=O)OC)ccc(c5ccc(C(=O)OC)c1c25)c43"
number = 0.97

[[record]]
line_notation = "CN(C)c1ccc(/C=C/c2nc3cc(Br)ccc3nc2-c2ccccc2)cc1"
number = 0.01

[[record]]
line_notation = "O=c1oc2ccccc2cc1/C=C/c1ccccc1"
number = 0.61

[[record]]
line_notation = "CN(C)C(=O)c1ccc(-c2nc3ccc(N(C)C)cc3s2)cc1"
number = 0.85


In: Which photoluminescence quantum yield is listed for COc1ccc([C@@H]2C[C@](O)(c3ccccn3)C[C@](O)(c3ccccn3)[C@H]2C(=O)c2ccc(N(c3ccccc3)c3ccccc3)cc2)cc1 ?
Out: 0.02

In: Which photoluminescence quantum yield is listed for c1ccc(-c2cc(-c3ccc(-c4nc(-c5ccccn5)c(-c5ccccn5)[nH]4)cc3)cc(-c3ccccn3)n2)nc1 ?
Out: 0.08

In: Which photoluminescence quantum yield is listed for COc1ccc(-c2nc(N)nc(C#N)c2C#N)cc1OC ?
Out: 0.0893

====

Experiment: photoluminescence quantum yield (fraction); solvent given as SMILES
Conditions: in C1CCCCC1
Measured Endpoint: photoluminescence quantum yield

[[record]]
line_notation = "Cc1ccccc1"
result = 0.22

[[record]]
line_notation = "CC1=[N+]2C(=C(c3ccc(N(c4ccccc4)c4ccccc4)cc3)c3ccc(C)n3[B-]2(F)F)C=C1c1cc2n(c1)[B-](F)(F)[N+]1=CC=CC1=C2c1c(C)cc(C)cc1C"
result = 0.37

[[record]]
line_notation = "CN(C)c1ccc2nc(-c3ccc(C(=O)O)cc3)sc2c1"
result = 0.89


In: Which photoluminescence quantum yield is listed for CB1C=Cc2ccc3ccccc3c2N1c1ccccc1 ?
Out: 0.04

In: Which photoluminescence quantum yield is listed for FC(F)(F)c1cc2n(n1)[B-](c1ccccc1)(c1ccccc1)[n+]1ccc3ccccc3c1-2 ?
Out: 0.999

In: Which photoluminescence quantum yield is listed for COc1ccc(C#Cc2ccc(C#Cc3ccc(P(=O)(c4ccc(C#Cc5ccc(C#Cc6ccc(OC)cc6)cc5)cc4)c4ccc(C#Cc5ccc(C#Cc6ccc(OC)cc6)cc5)cc4)cc3)cc2)cc1 ?
Out: 0.78

In: Which photoluminescence quantum yield is listed for C/C(=C\c1ccc(Cl)cc1)c1nc2ccccc2o1 ?
Out: 0.02

In: Which photoluminescence quantum yield is listed for CC1=[N+]2C(=C(c3ccc(C(=O)c4ccccc4)cc3)c3ccc(C)n3[B-]2(F)F)C=C1c1cc2n(c1)[B-](F)(F)[N+]1=CC=CC1=C2c1c(C)cc(C)cc1C ?
Out: 0.47

In: Which photoluminescence quantum yield is listed for CN(C)c1ccc(/C=C/c2ccccn2)cc1 ?
Out: 0.017

In: Which photoluminescence quantum yield is listed for CCOC(=O)C(C(=O)OCC)C1=[N+]2C(=C(c3ccc(C)cc3)c3ccc(Cl)n3[B-]2(F)F)C=C1 ?
Out: 0.46

In: Which photoluminescence quantum yield is listed for Cc1cccc(C)c1 ?
Out: 0.25

====

Assay: photoluminescence quantum yield (fraction); solvent given as SMILES
Conditions: in CN(C)C=O
Reported photoluminescence quantum yield values follow for various compounds
Output: the number by itself.

The following compounds have reported results that may help.
[[record]]
compound = "Nc1ccc(N2C(=O)c3ccc4c5ccc6c7c(ccc(c8ccc(c3c48)C2=O)c75)C(=O)N(c2ccc(O)cc2)C6=O)cc1"
number = 0.95

[[record]]
compound = "COC(=O)C(Cc1ccc2oc(-c3ccc(-n4c5ccccc5c5ccccc54)cc3)nc2c1)NC(=O)OC(C)(C)C (stereo not drawn)"
number = 0.58

[[record]]
compound = "CCc1ccc(-c2nc(-c3ccc(-n4c5ccccc5c5ccccc54)cc3)cc(-c3ccc(-n4c5ccccc5c5ccccc54)cc3)n2)cc1"
number = 0.74


# context switch: different compound, same photoluminescence quantum yield
In: Which photoluminescence quantum yield is listed for CN(C)CCN(Cc1c2ccccc2c(CN(CCN(C)C)c2ccc([N+](=O)[O-])cc2[N+](=O)[O-])c2ccccc12)c1ccc([N+](=O)[O-])cc1[N+](=O)[O-] ?
Out: 0.00067

====

Assay: photoluminescence quantum yield (fraction); solvent given as SMILES
Settings: in ClC(Cl)Cl
Measured Endpoint: photoluminescence quantum yield
Output: the number by itself.

[[record]]
compound = "CCCCN1C(=O)C(=C/C=C/C=C/C=C2N(CCCC)c3ccccc3N2CCCC)C(=O)N(CCCC)C1=S"
measured_endpoint = "photoluminescence quantum yield"
number = 0.365

[[record]]
compound = "O=[N+]([O-])c1ccc(C#Cc2ccc3ccccc3c2)cc1"
measured_endpoint = "photoluminescence quantum yield"
number = 0.005

[[record]]
compound = "CC1(C)Cc2c(c3ccccc3c3nc4c5c(c6ccccc6c4nc23)OC(C)(C)C5)O1"
measured_endpoint = "photoluminescence quantum yield"
number = 0.53

[[record]]
compound = "CCOC(CN1C(=O)C2=C(c3cc4cc(C(C)(C)C)cc(C(C)(C)C)c4o3)N(CC(OCC)OCC)C(=O)C2=C1c1cc2cc(C(C)(C)C)cc(C(C)(C)C)c2o1)OCC"
measured_endpoint = "photoluminescence quantum yield"
number = 0.75

[[record]]
compound = "COc1cc(/C=C/c2nc3ccccc3s2)c(OC)cc1/C=C/c1nc(C)nc(C)n1"
measured_endpoint = "photoluminescence quantum yield"
number = 0.88

[[record]]
compound = "CCn1c2ccccc2sc2c(C#N)c3oc4ccccc4oc3c(C#N)c21"
measured_endpoint = "photoluminescence quantum yield"
number = 0.23


In: Which photoluminescence quantum yield is listed for CCOC(=O)C1=C(C)NC2=C(C(=O)c3ccccc32)C1c1ccc(N(C)C)cc1 (configuration not stated) ?
Out: 0.44

In: Which photoluminescence quantum yield is listed for CCN(CC)c1ccc2cc(-c3cn4cc(OC)ccc4n3)c(=O)oc2c1 ?
Out: 0.9

In: Which photoluminescence quantum yield is listed for COc1ccc(-c2nc3ccccc3nc2-c2ccc(OC)cc2)cc1 ?
Out: 0.18

In: Which photoluminescence quantum yield is listed for CCCCCCCCc1ccc(-c2c3cc(-c4cc(CCCCCCCC)c(-c5ccc(-c6sc(/C=C7\SC(N8CCCCC8)=NC7=O)cc6CCCCCCCC)s5)s4)sc3c(-c3ccc(CCCCCCCC)s3)c3cc(-c4cc(CCCCCCCC)c(-c5ccc(-c6sc(/C=C7\SC(N8CCCCC8)=NC7=O)cc6CCCCCCCC)s5)s4)sc23)s1 ?
Out: 0.128

In: Which photoluminescence quantum yield is listed for O=C1/C(=C\c2ccc3oc4ccccc4c3c2)S(=O)(=O)c2ccccc21 ?
Out: 0.036

In: Which photoluminescence quantum yield is listed for COC(=O)c1ccc2c3ccc(C(=O)OC)c4c(C(=O)OC)ccc(c5ccc(C(=O)OC)c1c25)c43 ?
Out: 0.83

====

Reported photoluminescence quantum yield values follow for various molecules
Assay: photoluminescence quantum yield (fraction); solvent given as SMILES
Details: in CCCCCC

[[record]]
molecule = "c1coc(-c2nc3ccccc3[nH]2)c1"
result = 0.95

[[record]]
molecule = "CCC12C(=C3C(=C4c5ccc(-c6ccc(C)s6)cc5S(=O)(=O)C41CC)C(F)(F)C(F)(F)C3(F)F)c1ccc(-c3ccc(C)s3)cc1S2(=O)=O (stereo unspecified)"
result = 0.72

[[record]]
molecule = "F[B-]1(F)n2c(Cl)ccc2C(c2c(Cl)cccc2Cl)=C2C=CC(NCc3ccccc3)=[N+]21"
result = 0.82


In: Which photoluminescence quantum yield is listed for COc1ccc(N(c2ccc(OC)cc2)c2ccc3ccc4c(B(c5c(C)cc(C)cc5C)c5c(C)cc(C)cc5C)ccc5ccc2c3c54)cc1 ?
Out: 1

In: Which photoluminescence quantum yield is listed for O=C1OC(=O)c2ccc(N(c3ccccc3)c3ccc4ccccc4c3)c3cccc1c23 ?
Out: 0.335

In: Which photoluminescence quantum yield is listed for COc1ccc(-n2nc(C(=O)N3CCCC3)c(N3CCCC3)n2)cc1 ?
Out: 0.94

====

Assay: photoluminescence quantum yield (fraction); solvent given as SMILES
Settings: in ClC(Cl)Cl
Strictly below 0.6 in photoluminescence quantum yield: true. Otherwise: false.

Look over these answered cases.
[[record]]
molecule = "CC1=c2cc3c(C)c4n(c3cc2=[N+]2C1=Cc1c3ccccc3c(C)n1[B-]2(F)F)[B-](F)(F)[N+]1=C(C)c2ccccc2C1=C4"
class_label = "true"

[[record]]
molecule = "CCCCN1C(=O)C(=C/C=C/C=C2N(CCCC)c3ccccc3N2CCCC)C(=O)N(CCCC)C1=S"
class_label = "true"

[[record]]
molecule = "CCCCCCCCN1c2ccc(C#Cc3cc(C(F)(F)F)cc(C(F)(F)F)c3)cc2Sc2cc(C=O)ccc21"
class_label = "false"

[[record]]
molecule = "CCCCC1(c2ccccc2)Nc2c(-c3ccc(OC)cc3)ccc(-c3ccc(OC)cc3)c2N=C1c1ccccc1 (stereo not given)"
class_label = "true"


In: Does the reported photoluminescence quantum yield of the following molecule sit strictly below 0.6? CC(=O)c1c2c(cc3ccc(N(C)C)cc13)CCC2
Out: false
